Test system: Staphylococcus aureus
Assay: Antibacterial activity against Staphylococcus aureus ATCC 25923 assessed as reduction in microbial growth by two fold microdilution method
Format: functional
OBSERVABLE: MIC
# output: numeric value plus its unit

Incoming: Fill blank: measured MIC of the compound C=CCO/N=C(\CN1CCN(c2cc3c(cc2F)c(=O)c(C(=O)O)cn3C2CC2)CC1)c1nccs1 is ____.
Outgoing: 0.25 µg/mL

---

System: Staphylococcus aureus
Assay: Antibacterial activity against Staphylococcus aureus assessed as reduction in microbial growth by two fold microdilution method
Format: functional
OBSERVABLE: MIC

Worked cases, MIC given:
C=CCO/N=C(\CN1CCN(c2c(F)cc3c(=O)c(C(=O)O)cn(C4CC4)c3c2Cl)CC1)c1nccs1 :: 0.25 µg/mL
CO/N=C(\CN1CCN(c2c(F)cc3c(=O)c(C(=O)O)cn(C4CC4)c3c2Cl)CC1)c1nccs1 :: 0.25 µg/mL

Okay, next one:
Incoming: Fill blank: measured MIC of the compound CO/N=C(\CN1CCN(c2cc3c(cc2F)c(=O)c(C(=O)O)cn3C2CC2)CC1)c1nccs1 is ____.
Outgoing: 0.25 µg/mL
